# CDA2-GFP sporulation assay sensitivity score per entry
# System: S. cerevisiae SK1 pCDA2-eGFP (USY613), sporulating;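 further: active if sensitivity score above 5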
# Assay protocol: CDA2-GFP sporulation assay sensitivity score (z-score vs DMSO controls); higher = stronger inhibition of sporulation, active = hit call of the paper
Structures can show the parent of a compound that is named as a salt.
Measure: CDA2-GFP sporulation assay sensitivity score

>>> measured("Clc1cccc(Cl)c1NC1=NCCN1 [Clonidine] (stock concentration (mM, diluted 1:100): 10)")
-1.29
>>> measured("CO[C@H]1/C=C/O[C@@]2(C)Oc3c(C)c(O)c4c(O)c(c(/C=N/N5CCN(C6CCCC6)CC5)c(O)c4c3C2=O)NC(=O)/C(C)=C\\C=C\\[C@H](C)[C@H](O)[C@@H](C)[C@@H](O)[C@@H](C)[C@H](OC(C)=O)[C@@H]1C [Rifapentine] (stock concentration (mM, diluted 1:100): 10)")
14.2
>>> measured("CN(C)CCC(c1ccc(Cl)cc1)c1ccccn1 (configuration not stated) [Chlorpheniramine] (stock concentration (mM, diluted 1:100): 10)")
-1.3
>>> measured("CC(=O)NC[C@H]1CN(c2ccc(N3CCOCC3)c(F)c2)C(=O)O1 [Linezolide] (stock concentration (mM, diluted 1:100): 10)")
0.79
>>> measured("CCOC(=O)C1=C(C)NC(C)=C(C(=O)OC)C1c1cccc([N+](=O)[O-])c1 (configuration not stated) [Nitrendipine] (stock concentration (mM, diluted 1:100): 10)")
10.3
>>> measured("O=C1c2cccc3c2[C@H](CCC3)CN1[C@@H]1CN2CCC1CC2 [Palonosetron hydrochloride] (stock concentration (mM, diluted 1:100): 10)")
8.71
>>> measured("Cc1nc2n(c(=O)c1CCN1CCC(c3noc4cc(F)ccc34)CC1)CCCC2 [Risperidone] (stock concentration (mM, diluted 1:100): 10)")
-0.4
>>> measured("CNCCCCOc1ccccc1Cc1ccccc1 [Bifemelane] (stock concentration (mM, diluted 1:100): 10)")
1.21
>>> measured("COc1ccccc1OCCNCC(O)COc1cccc2[nH]c3ccccc3c12 (configuration not stated) [Carvedilol] (stock concentration (mM, diluted 1:100): 10)")
-0.9
>>> measured("O=c1cnn([C@@H]2O[C@H](CO)[C@@H](O)[C@H]2O)c(=O)[nH]1 [6-Azauridine] (stock concentration (mM, diluted 1:100): 10)")
0.6
>>> measured("C=C1/C(=C\\C=C2/CCC[C@]3(C)[C@@H]([C@H](C)CCCC(C)(C)O)CC[C@@H]23)C[C@@H](O)C[C@@H]1O [Calcitriol] (stock concentration (mM, diluted 1:100): 10)")
3.05
>>> measured("CCOC(=O)c1ccc(OC(=O)CCCCCNC(=N)N)cc1 [Gabexate mesylate] (stock concentration (mM, diluted 1:100): 7.7)")
2.43
>>> measured("Nc1ncnc2c1ncn2[C@@H]1O[C@H](CO)C[C@@H]1O [3-Deoxydenosine] (stock concentration (mM, diluted 1:100): 10)")
19.9
>>> measured("O=[N+]([O-])c1cccc2cn[nH]c12 [7-Nitroindazole] (stock concentration (mM, diluted 1:100): 10)")
2.93
>>> measured("CNC(=C[N+](=O)[O-])NCCSCc1csc(CN(C)C)n1 [Nizatidine] (stock concentration (mM, diluted 1:100): 10)")
-0.14
>>> measured("O=C(NCCN1CCOCC1)c1ccc(Cl)cc1 [Moclobemide] (stock concentration (mM, diluted 1:100): 10)")
0.72
>>> measured("CCC1=C[C@H]2CN(C1)Cc1c([nH]c3ccccc13)[C@@](C(=O)OC)(c1cc3c(cc1OC)N(C)[C@H]1[C@@](O)(C(=O)OC)[C@H](OC(C)=O)[C@]4(CC)C=CCN5CC[C@]31[C@@H]54)C2 [Vinorelbine bitatrate] (stock concentration (mM, diluted 1:100): 7.2)")
1.77

src = the supplement of paper PMC3414501
